target-under-test: PDE4D2 (Homo sapiens (Human))
Sequence (Q08499 303-809, change not shown): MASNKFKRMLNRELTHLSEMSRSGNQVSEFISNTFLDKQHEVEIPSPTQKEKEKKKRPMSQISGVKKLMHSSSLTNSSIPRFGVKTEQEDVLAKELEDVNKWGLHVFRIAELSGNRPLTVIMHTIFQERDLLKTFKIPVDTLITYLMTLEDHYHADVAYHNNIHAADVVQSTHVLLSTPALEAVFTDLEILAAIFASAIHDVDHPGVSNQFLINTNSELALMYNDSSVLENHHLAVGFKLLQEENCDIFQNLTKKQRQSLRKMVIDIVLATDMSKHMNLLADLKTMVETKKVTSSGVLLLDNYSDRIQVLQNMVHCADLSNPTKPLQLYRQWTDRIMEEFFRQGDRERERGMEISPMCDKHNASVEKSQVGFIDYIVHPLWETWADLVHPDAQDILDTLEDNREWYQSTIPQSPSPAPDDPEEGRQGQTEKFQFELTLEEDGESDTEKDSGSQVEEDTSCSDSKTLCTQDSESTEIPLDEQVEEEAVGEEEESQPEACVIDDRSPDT
pIC50: −log10 of the molar value.
endpoint-name: pIC50

compound="C#Cc1cnc(C2=CCN(c3nc4c(c(NC5(C(C)O)CCC5)n3)[S@+]([O-])CC4)CC2)nc1 (stereo partly drawn) [Compound 66]" target_under_test="PDE4D2 (Homo sapiens (Human))" value="> 8.00"
compound="CC(C)(COC(N)=O)Nc1nc(N2CC=C(c3ncc4c(n3)CCC4)CC2)nc2c1[S@+]([O-])CC2 [Compound 125]" target_under_test="PDE4D2 (Homo sapiens (Human))" value="7.30 to 8.00"

Please give pIC50 for each item listed below.
1. C#Cc1ccc(C2=CCN(c3nc4c(c(NC5([C@H](C)O)CCC5)n3)[S@+]([O-])CC4)CC2)nc1 [Compound 95-2]
2. CC(C)(COC(N)=O)Nc1nc(N2CC=C(c3ncc(N4CC[Si](C)(C)CC4)cn3)CC2)nc2c1[S@+]([O-])CC2 [Compound 106]
3. C#Cc1cnc(C2=CCN(c3nc4c(c(Nc5cccc(F)c5)n3)[S@@+]([O-])CC4)CC2)nc1 [Compound 36-2]
4. [O-][S@@+]1CCCc2nc(N3C[C@H]4CN(c5ccc6c(c5)CC6)C[C@H]4C3)nc(NC3(CO)CCC3)c21 [Compound 13-2]

1: > 8.00; 2: 7.30 to 8.00; 3: 7.30 to 8.00; 4: 7.30 to 8.00

----------
test-summary: Pharmacokinetic test in beagle dogs
Type: in vivo
measurement-setup: male, iv; beagle dog plasma, i.v. 1 mg/kg
endpoint-name: AUC(0-t) (ng·h/mL)
Answers are plain numbers, in ng·h/mL.

Please look up its AUC(0-t): CC(C)(COC(N)=O)Nc1nc(N2CC=C(c3ncc(Cl)cn3)CC2)nc2c1[S@+]([O-])CC2 [Compound 51]
4990

----------
target-under-test: PDE4B2 (Homo sapiens (Human))
Sequence (Q07343 other isoform, or with tags, fused parts or gaps): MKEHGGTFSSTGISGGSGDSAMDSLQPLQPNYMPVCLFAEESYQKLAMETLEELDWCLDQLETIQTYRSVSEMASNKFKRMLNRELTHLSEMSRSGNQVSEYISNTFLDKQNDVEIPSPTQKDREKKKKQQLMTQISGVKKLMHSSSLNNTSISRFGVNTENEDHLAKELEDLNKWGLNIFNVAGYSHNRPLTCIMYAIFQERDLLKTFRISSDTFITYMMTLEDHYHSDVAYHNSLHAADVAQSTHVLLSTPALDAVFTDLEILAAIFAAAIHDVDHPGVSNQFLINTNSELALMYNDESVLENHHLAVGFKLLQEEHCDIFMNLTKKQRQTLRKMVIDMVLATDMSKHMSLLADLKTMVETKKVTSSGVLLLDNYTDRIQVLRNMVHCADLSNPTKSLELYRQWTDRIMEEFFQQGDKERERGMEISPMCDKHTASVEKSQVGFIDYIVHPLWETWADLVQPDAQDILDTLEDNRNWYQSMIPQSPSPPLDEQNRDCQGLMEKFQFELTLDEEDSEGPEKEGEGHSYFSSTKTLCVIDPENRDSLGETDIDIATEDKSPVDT
test-summary: Effect of compounds on PDE4B2 activity (fluorescence polarization kit)
endpoint-name: IC50

compound=C#Cc1ccc(C2=CCN(c3nc4c(c(NC5(CNC(=O)OC)CCC5)n3)[S@+]([O-])CC4)CC2)nc1 value="< 0.01 µM"
compound=NC(=O)OCC1(Nc2nc(N3CC=C(c4nc5ccccc5s4)CC3)nc3c2[S@+]([O-])CC3)CCC1 value="< 0.01 µM"
compound="C#Cc1cnc(C2=CCN(c3nc4c(c(NC5(C(C)O)CCC5)n3)[S@+]([O-])CC4)CC2)nc1 (stereo partly drawn)" value="< 0.01 µM"
compound=CN(C)c1cnc(C2=CCN(c3nc4c(c(NC(C)(C)COC(N)=O)n3)[S@+]([O-])CC4)CC2)nc1 value="0.01 to 0.05 µM"
compound=CC#Cc1ccc(C2=CCN(c3nc4c(c(NC(C)(C)COC(N)=O)n3)[S@+]([O-])CC4)CC2)nc1 value="< 0.01 µM"

Let us examine a further case.
What value of IC50 has been recorded for this entry: COC(=O)NCC1(Nc2nc(N3CC=C(c4ncc(Cl)cn4)CC3)nc3c2[S@+]([O-])CC3)CCC1
< 0.01 µM

----------
# collection of IC50 values tested on PDE4D2 (Homo sapiens (Human))

Solved cases (2 shown):
compound="[O-][S+]1CCc2nc(N3CCN4c5ccccc5OC[C@@H]4C3)nc(NC3(CO)COC3)c21 (stereo partly drawn) [Compound 72-4]" endpoint_name=IC50 value="< 10 nM"
compound="COC(=O)NCC(C)(C)Nc1nc(N2C[C@H]3CC(c4ncc5c(n4)CC5)=C[C@H]3C2)nc2c1[S@+]([O-])CC2 [Compound 139-2]" endpoint_name=IC50 value="10 to 50 nM"

For the next question, use this compound.
# value lookup — system PDE4D2 (Homo sapiens (Human)), readout IC50, item COC(=O)NCC(C)(C)Nc1nc(N2CC=C(c3ncc(Cl)cn3)CC2)nc2c1[S@+]([O-])CC2 [Compound 88]
< 10 nM
